# STUDY_SYSTEM: Acrosin (Homo sapiens)
# Sequence (P10323 20-42 limits assumed): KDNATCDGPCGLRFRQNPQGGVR
# Sequence (P10323 43-343 limits assumed): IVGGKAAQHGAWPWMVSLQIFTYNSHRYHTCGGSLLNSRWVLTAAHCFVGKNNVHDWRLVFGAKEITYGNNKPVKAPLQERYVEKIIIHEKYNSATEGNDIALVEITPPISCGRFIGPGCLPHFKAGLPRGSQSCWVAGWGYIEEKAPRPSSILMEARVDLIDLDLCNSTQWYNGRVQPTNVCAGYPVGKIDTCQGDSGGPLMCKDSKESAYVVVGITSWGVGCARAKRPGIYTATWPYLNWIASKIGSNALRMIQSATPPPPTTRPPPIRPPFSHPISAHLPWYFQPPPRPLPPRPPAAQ
# TEST_NAME: Inhibition of acrosin activity in human spermatozoa using N-alpha-benzoyl-DL-arginine para-nitroanilide-HCI as a substrate after 3 hrs by spectrophotometric analysis
OBSERVATION_TYPE: IC50 (mM)

The following compounds have reported results that may help.
- CCCC(=O)Nc1ccc(S(=O)(=O)N=C(N)N)cc1: 9.58
- NC(N)=NS(=O)(=O)c1ccc(NC(=O)c2ccc(F)cc2)cc1: 7.11
- CCCCC(=O)Nc1ccc(S(=O)(=O)N=C(N)N)cc1: 1.58
- CCC(=O)Nc1ccc(S(=O)(=O)N=C(N)N)cc1: 9
- CC1CCCCN1CC(=O)Nc1ccc(S(=O)(=O)N=C(N)N)cc1 (stereo not given): 9.9

[P] Cc1ccccc1OCC(=O)Nc1ccc(S(=O)(=O)N=C(N)N)cc1
[Q] NC(N)=NS(=O)(=O)c1ccc(NC(=O)c2ccccc2Cl)cc1
[R] CCc1ccc(C(=O)Nc2ccc(S(=O)(=O)N=C(N)N)cc2)cc1
[S] COc1ccc(C(=O)Nc2ccc(S(=O)(=O)N=C(N)N)cc2)cc1
[T] NC(N)=NS(=O)(=O)c1ccc(NC(=O)COc2ccc([N+](=O)[O-])cc2)cc1
// query Order field: IC50 | Direction: descending (largest first) Could you list the labels in the order requested?
// result P, Q, T, S, R
